protocol-summary: Metabolic stability in rat liver microsomes assessed as apparent intrinsic clearance
reported-metric: CLint scaled (mL/min/kg)
Value expressed in mL/min/kg; do not type the unit.

Task: Report CLint scaled for "O=C1C2=C(CCN(Cc3ccccc3)C2)N2CCN=C2N1Cc1ccc(C(F)(F)F)cc1" please.
Output: 876

----------
protocol-summary: Clearance in ICR mouse at 5 mg/kg, iv measured upto 24 hrs by LC-MS/MS analysis
test-conditions: in vivo
reported-metric: clearance at 24 h (L/h/kg)
Write the answer as a number in L/h/kg, unit excluded.

Task: # lookup: clearance at 24 h of "Cc1ccccc1CN1C(=O)C2=C(CCN(Cc3ccccc3)C2)N2CCN=C12.Cl.Cl.O"
Output: 2.56

----------
protocol-summary: in vivo
test-conditions: ICR, mouse, po, 10 mg/kg
Description: Tmax in ICR mouse at 10 mg/kg, po measured upto 24 hrs by LC-MS/MS analysis
reported-metric: Tmax at 24 h

Task: Consider the molecule shown here: "O=C1C2=C(CCN(Cc3ccccc3)C2)N2CCN=C2N1Cc1ccc(C(F)(F)F)cc1" What is its recorded Tmax at 24 h?
Output: 25.2 min

----------
target-or-system: ATP-dependent Clp protease proteolytic subunit, mitochondrial (Homo sapiens, UniProt Q16740)
Sequence (Q16740 whole entry): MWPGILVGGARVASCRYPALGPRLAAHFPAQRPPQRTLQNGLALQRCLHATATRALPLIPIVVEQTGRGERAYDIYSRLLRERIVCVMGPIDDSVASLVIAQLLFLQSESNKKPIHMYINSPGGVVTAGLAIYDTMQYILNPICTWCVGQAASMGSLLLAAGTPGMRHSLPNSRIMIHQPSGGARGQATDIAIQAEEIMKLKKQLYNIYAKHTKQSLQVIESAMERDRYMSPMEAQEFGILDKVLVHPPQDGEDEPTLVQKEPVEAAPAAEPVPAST
protocol-summary: Activation of human ClpP extracted from Escherichia coli using Ac-WLA-AMC as substrate assessed as fluorescence signal measured after 10 mins incubation
reported-metric: pEC50
On this scale, pEC50 is minus log10 of a concentration expressed in M (mol/L).

Task: Any idea what pEC50 was measured for "C[C@@H]1Cc2nc(NCc3ccccc3Br)[nH]c(=O)c2CN1Cc1cccc(C#N)c1" ?
Output: 6.46

----------
target-or-system: Voltage-gated inwardly rectifying potassium channel KCNH2 (Homo sapiens)
Sequence (Q12809 whole entry): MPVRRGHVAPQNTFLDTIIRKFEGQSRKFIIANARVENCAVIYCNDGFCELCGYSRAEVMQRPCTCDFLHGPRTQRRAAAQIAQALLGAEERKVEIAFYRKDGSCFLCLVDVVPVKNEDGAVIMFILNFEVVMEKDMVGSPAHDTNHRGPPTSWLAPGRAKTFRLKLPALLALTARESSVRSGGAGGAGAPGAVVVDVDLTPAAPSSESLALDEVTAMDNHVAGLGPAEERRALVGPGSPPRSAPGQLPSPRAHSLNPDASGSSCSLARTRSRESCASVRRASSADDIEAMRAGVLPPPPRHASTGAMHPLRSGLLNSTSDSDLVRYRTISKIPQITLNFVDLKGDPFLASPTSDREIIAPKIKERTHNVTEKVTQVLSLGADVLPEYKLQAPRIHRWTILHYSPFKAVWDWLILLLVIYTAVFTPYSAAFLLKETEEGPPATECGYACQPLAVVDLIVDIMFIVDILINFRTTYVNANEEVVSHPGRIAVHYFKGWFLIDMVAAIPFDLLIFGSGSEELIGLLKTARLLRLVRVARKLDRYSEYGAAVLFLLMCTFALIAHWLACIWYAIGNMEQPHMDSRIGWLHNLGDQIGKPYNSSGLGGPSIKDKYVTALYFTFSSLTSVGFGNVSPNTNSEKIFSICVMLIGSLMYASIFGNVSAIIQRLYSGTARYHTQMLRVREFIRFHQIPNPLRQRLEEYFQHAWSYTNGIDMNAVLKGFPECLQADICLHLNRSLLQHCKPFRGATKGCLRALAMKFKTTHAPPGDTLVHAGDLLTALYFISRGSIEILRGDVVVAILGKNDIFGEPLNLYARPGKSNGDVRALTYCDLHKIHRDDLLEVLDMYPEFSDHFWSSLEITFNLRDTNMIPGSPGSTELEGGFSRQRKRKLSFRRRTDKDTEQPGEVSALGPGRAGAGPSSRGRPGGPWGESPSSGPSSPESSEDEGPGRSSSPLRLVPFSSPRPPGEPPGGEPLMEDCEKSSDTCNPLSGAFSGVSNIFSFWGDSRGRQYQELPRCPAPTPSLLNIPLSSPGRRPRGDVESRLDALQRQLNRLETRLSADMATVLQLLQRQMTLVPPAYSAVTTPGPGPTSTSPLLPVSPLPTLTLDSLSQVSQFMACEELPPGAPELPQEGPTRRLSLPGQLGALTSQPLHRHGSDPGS
IC50 listing for selected compounds.
Output spec: scalar in µM, unitless text.

{"columns": ["smi", "IC50, µM"],
 "data": [
  ["O=c1nc2n(c3c1CN(Cc1ccccc1)CC3)CCN2Cc1ccc(F)c(Br)c1", 1.52]
]}

Task: Fill in: IC50 of "C[C@@H]1Cc2nc(NCc3ccc(Br)cc3)[nH]c(=O)c2CN1Cc1cccc(C#N)c1" is ___
Output: 4.91

----------
protocol-summary: Metabolic stability in human liver microsomes assessed as hepatic clearance
reported-metric: CLhep predicted (mL/min/kg)
Express the result in mL/min/kg but write the number alone.

Task: Report CLhep predicted for "O=C1C2=C(CCN(Cc3ccccc3)C2)N2CCN=C2N1Cc1ccc(C(F)(F)F)cc1" please.
Output: 19.7

----------
protocol-summary: in vivo
test-conditions: ICR, mouse, po, 15 mg/kg
Description: AUC (0 to t) in ICR mouse at 15 mg/kg, po measured upto 24 hrs by LC-MS/MS analysis
reported-metric: AUC(0-t) at 24 h (ng·h/mL)
Number in ng·h/mL, nothing else.

Task: Query (compound): "Cc1ccccc1CN1C(=O)C2=C(CCN(Cc3ccccc3)C2)N2CCN=C12.Cl.Cl.O" ; field requested: AUC(0-t) at 24 h
Output: 894

----------
protocol-summary: Half life in ICR mouse at 15 mg/kg, po measured upto 24 hrs by LC-MS/MS analysis
test-conditions: in vivo
reported-metric: half-life at 24 h (h)
Numbers only here, please. The scale is h.

Task: Any idea what half-life at 24 h was measured for "Cc1ccccc1CN1C(=O)C2=C(CCN(Cc3ccccc3)C2)N2CCN=C12.Cl.Cl.O" ?
Output: 1.05

----------
System: OCI-Ly10
protocol-summary: Antiproliferative activity against human OCI-Ly10 cells assessed as cell viability measured after 72 hrs incubation by CellTiter-based growth inhibition assay
test-conditions: OCI-Ly10, 72 h
pIC50: −log10 of the molar value.
Mark yes (1) for reported pIC50 of 7 or greater; mark no (0) for anything smaller.

Worked cases, answers included:
{"columns": ["compound", "assigned-class"],
 "data": [
  ["C[C@@H]1Cc2nc(NCc3ccc(C(F)(F)F)cc3)[nH]c(=O)c2CN1Cc1cccc(Br)c1", "yes (1)"],
  ["C[C@@H]1Cc2nc(NCc3ccc(C(F)(F)F)cc3)[nH]c(=O)c2CN1Cc1ccc(C#N)cc1", "no (0)"],
  ["C[C@@H]1Cc2nc(NCc3ccc(C(F)(F)F)cc3)[nH]c(=O)c2CN1Cc1ccccc1F", "no (0)"],
  ["Cc1ccccc1CNc1nc2c(c(=O)[nH]1)CN(Cc1cccc(C#N)c1)[C@H](C)C2", "yes (1)"],
  ["C[C@@H]1Cc2nc(NCc3ccc(Cl)cc3)[nH]c(=O)c2CN1Cc1cccc(C#N)c1", "yes (1)"]
]}

Task: Dear colleague, could you confirm whether "C[C@@H]1Cc2nc(NCc3ccc(C(F)(F)F)cc3)[nH]c(=O)c2CN1Cc1ccncc1" has pIC50 at or above 7?
Output: no (0)

Task: Decide: pIC50 of "C[C@@H]1Cc2nc(NCc3ccc(C(F)(F)F)cc3)[nH]c(=O)c2CN1Cc1cccc(OC(F)(F)F)c1" >= 7?
Output: no (0)

Task: Given C[C@@H]1Cc2nc(N3CCC(c4ccccc4)C3)[nH]c(=O)c2CN1Cc1cccc(C#N)c1 (stereo partly drawn) , state whether its pIC50 is at least 7.
Output: no (0)

Task: For this compound, is measured pIC50 7 or higher? "C[C@@H]1Cc2nc(NCC3CC3)[nH]c(=O)c2CN1Cc1cccc(C#N)c1"
Output: no (0)
